Origin of values: ChEMBL document CHEMBL4145448

assay_details: Selectivity index, ratio of CC50 for human HepG2 cells in presence of 1% FBS to MIC for Pseudomonas aeruginosa ATCC 27853
Assay type: toxicity
assay_conditions: read-out: Selectivity Index
Lab note - cut at 0.7 for selectivity ratio: 1 if strictly below, -1 if not.

* N#Cc1ccc2c(c1)[I+]c1ccccc1-2 | 1
* Fc1cccc2c1-c1ccccc1[I+]2 | -1
* Fc1ccc2c(c1)-c1ccccc1[I+]2 | 1
* c1ccc2c(c1)[I+]c1c-2ccc2ccccc12 | 1
* Clc1ccc2c(c1)-c1ccccc1[I+]2 | -1
* Fc1ccc2c(c1)[I+]c1ccccc1-2 | 1
* Cc1ccc2c(c1)[I+]c1ccccc1-2.O=S(=O)([O-])C(F)(F)F | 1
* N#Cc1ccc2c(c1)-c1ccccc1[I+]2 | 1
* Cc1cccc2c1-c1ccccc1[I+]2 | 1
* Clc1ccc2c(c1)[I+]c1ccccc1-2 | 1
* c1ccc2c(c1)[I+]c1ccccc1-2 | 1

###

Entries and their measured selectivity ratio follow.
assay_details: Selectivity index, ratio of CC50 for human HepG2 cells in presence of 1% FBS to MIC for methicillin-resistant Staphylococcus aureus ATCC 43300
Assay type: toxicity
assay_conditions: read-out: Selectivity Index
recorded_endpoint: selectivity ratio

- Cc1cccc2c1-c1ccccc1[I+]2: 0.07
- Clc1ccc2c(c1)-c1ccccc1[I+]2: 7.5
- Clc1cccc2c1-c1ccccc1[I+]2: 0.61
- Fc1cccc2c1-c1ccccc1[I+]2: 2.1
- Cc1ccc2c(c1)-c1ccccc1[I+]2: 4.2
- N#Cc1ccc2c(c1)[I+]c1ccccc1-2: 0.75
- Cc1ccc2c(c1)[I+]c1ccccc1-2.O=S(=O)([O-])C(F)(F)F: 0.81
- Fc1ccc2c(c1)[I+]c1ccccc1-2: 2.6

###

assay_details: Selectivity index, ratio of CC50 for human HepG2 cells in presence of 1% FBS to MIC for Klebsiella pneumoniae isolate 248-33-D
Format: toxicity
assay_conditions: read-out: Selectivity Index
Entries and their measured selectivity ratio follow.
recorded_endpoint: selectivity ratio

- COc1ccc2c(c1)-c1ccccc1[I+]2: > 0.29
- COc1ccc2c(c1)[I+]c1ccccc1-2: > 0.11
- N#Cc1ccc2c(c1)[I+]c1ccccc1-2: > 0.05
- Cc1cccc2c1-c1ccccc1[I+]2: > 0.04

###

Entries and their measured selectivity ratio follow.
assay_details: Selectivity index, ratio of CC50 for human HepG2 cells in presence of 1% FBS to MIC for Escherichia coli N4149
Type: toxicity
assay_conditions: read-out: Selectivity Index
recorded_endpoint: selectivity ratio

• COc1ccc2c(c1)-c1ccccc1[I+]2 = > 0.29
• N#Cc1ccc2c(c1)-c1ccccc1[I+]2 = > 0.32
• COc1cccc2c1-c1ccccc1[I+]2 = > 0.55
• Cc1cccc2c1-c1ccccc1[I+]2 = > 0.04

###

Test system: Pseudomonas aeruginosa
assay_details: Antibacterial activity against Pseudomonas aeruginosa QLD PSA 1 after 18 hrs by broth microdilution method
Type: functional
assay_conditions: QLD PSA 1, 18 h
recorded_endpoint: MIC (µM)

- N#Cc1ccc2c(c1)[I+]c1ccccc1-2: 8.8
- Clc1ccc2c(c1)-c1ccccc1[I+]2: 8.7
- Fc1ccc2c(c1)[I+]c1ccccc1-2: 8.9
- c1ccc2c(c1)[I+]c1ccccc1-2: 9.3
- N#Cc1ccc2c(c1)-c1ccccc1[I+]2: 18
- COc1ccc2c(c1)-c1ccccc1[I+]2: 70

###

assay_details: Selectivity index, ratio of CC50 for human HepG2 cells in presence of 1% FBS to MIC for Pseudomonas aeruginosa isolate M146201
Assay type: toxicity
assay_conditions: read-out: Selectivity Index
Entries and their measured selectivity ratio follow.
recorded_endpoint: selectivity ratio

• Cc1ccc2c(c1)-c1ccccc1[I+]2 = 1
• Fc1ccc2c(c1)-c1ccccc1[I+]2 = 2.7
• Clc1ccc2c(c1)[I+]c1ccccc1-2 = 0.51
• Fc1cccc2c1-c1ccccc1[I+]2 = 4.1

###

assay_details: Selectivity index, ratio of CC50 for human HepG2 cells in presence of 1% FBS to MIC for Pseudomonas aeruginosa isolate 19147nm
Format: toxicity
assay_conditions: read-out: Selectivity Index
recorded_endpoint: selectivity ratio

* Fc1cccc2c1-c1ccccc1[I+]2 | < 16
* Clc1ccc2c(c1)[I+]c1ccccc1-2 | 2
* Clc1cccc2c1-c1ccccc1[I+]2 | < 2.4

###

Entries and their measured MIC follow.
System: Pseudomonas aeruginosa
assay_details: Antibacterial activity against Pseudomonas aeruginosa ATCC 27853 after 18 hrs by broth microdilution method
Type: functional
assay_conditions: ATCC 27853, 18 h
recorded_endpoint: MIC

• COc1ccc2c(c1)-c1ccccc1[I+]2 = > 70 µM
• Cc1ccc2c(c1)-c1ccccc1[I+]2 = > 73 µM
• COc1ccc2c(c1)[I+]c1ccccc1-2 = > 70 µM
• Clc1cccc2c1-c1ccccc1[I+]2 = < 0.27 µM
• COc1cccc2c1-c1ccccc1[I+]2 = > 70 µM

###

assay_details: Selectivity index, ratio of CC50 for human HepG2 cells in presence of 1% FBS to MIC for Acinetobacter baumannii ATCC 17978 col10
Assay type: toxicity
assay_conditions: read-out: Selectivity Index
Entries and their measured selectivity ratio follow.
recorded_endpoint: selectivity ratio

- Clc1ccc2c(c1)[I+]c1ccccc1-2: < 4.1
- Clc1cccc2c1-c1ccccc1[I+]2: < 2.4
- Fc1cccc2c1-c1ccccc1[I+]2: < 16

###

Entries and their measured selectivity ratio follow.
assay_details: Selectivity index, ratio of CC50 for human HepG2 cells in presence of 1% FBS to MIC for Acinetobacter baumannii isolate 07AC-336
Type: toxicity
assay_conditions: read-out: Selectivity Index
recorded_endpoint: selectivity ratio

- Clc1cccc2c1-c1ccccc1[I+]2: < 2.4
- N#Cc1ccc2c(c1)[I+]c1ccccc1-2: > 0.05
- COc1ccc2c(c1)[I+]c1ccccc1-2: > 0.11

###

assay_details: Selectivity index, ratio of CC50 for human HepG2 cells in presence of 1% FBS to MIC for Pseudomonas aeruginosa ATCC 27853
Assay type: toxicity
assay_conditions: read-out: Selectivity Index
Entries and their measured selectivity ratio follow.
recorded_endpoint: selectivity ratio

- COc1cccc2c1-c1ccccc1[I+]2: > 0.55
- COc1ccc2c(c1)-c1ccccc1[I+]2: > 0.29
- Clc1cccc2c1-c1ccccc1[I+]2: < 2.4
- COc1ccc2c(c1)[I+]c1ccccc1-2: > 0.11
- Cc1ccc2c(c1)-c1ccccc1[I+]2: > 0.52
